B1: glmS ribozyme (parent)
chain: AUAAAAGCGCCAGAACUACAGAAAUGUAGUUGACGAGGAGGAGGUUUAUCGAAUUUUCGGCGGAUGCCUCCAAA

Variants of: B1
experimental-protocol: kcat; higher = faster cleavage; RNA array
condition-label: with glucosamine-6-phosphate
This sample holds only a part of the variants without activity.
measurement-type: kcat (s⁻¹)

> print(dat)
                mutant.label  measurement.type  unit.info  modifier.sign  data.value
 1                 U56A U57A              kcat        s⁻¹              =    0.000351
 2                 C10U U69G              kcat        s⁻¹              =    2.93e-05
 3                 U45C U54A              kcat        s⁻¹              =     0.00783
 4                 A14G A33U              kcat        s⁻¹              =    0.000136
 5                 U45C A53G              kcat        s⁻¹              =     0.00416
 6            G37C G60A C68U              kcat        s⁻¹              =    1.98e-05
 7                 A15U U46C              kcat        s⁻¹              =    0.000336
 8                 C11U G32A              kcat        s⁻¹              =    0.000453
 9                 A14U C58A              kcat        s⁻¹              =    0.000695
10                 C50A C61G              kcat        s⁻¹              =    2.25e-05
11                 G40C C71A              kcat        s⁻¹              =     0.00654
12            A12C U45A A64U              kcat        s⁻¹              =     0.00036
13                 G32U C67G              kcat        s⁻¹              =    0.000119
14                 U30G U56C              kcat        s⁻¹              =     0.00111
15                 G29U G41A              kcat        s⁻¹              =    0.000207
16                 G29C A39G              kcat        s⁻¹              =     0.00594
17            G38C C50U C61G              kcat        s⁻¹              <       1e-05
18                  A6G A12G              kcat        s⁻¹              =    1.13e-05
19            A39G C70U C71U              kcat        s⁻¹              =    0.000401
20                 U31G G41U              kcat        s⁻¹              =    0.000641
21                      A52C              kcat        s⁻¹              =     2.8e-05
22                 G13U C16A              kcat        s⁻¹              =    0.000283
23                 G41C A64G              kcat        s⁻¹              =    0.000146
24                 A14G G59U              kcat        s⁻¹              =    0.000386
25                 C61A C70U              kcat        s⁻¹              =    1.28e-05
26                  A6C U55G              kcat        s⁻¹              =     0.00017
27  A12G A14U G32U G60A G66U              kcat        s⁻¹              <       1e-05
28                 A39U U45G              kcat        s⁻¹              =     0.00909
29                 G44U A64G              kcat        s⁻¹              =    0.000112
30            A14G A23C A64U              kcat        s⁻¹              =    0.000287
31                 A52G U69C              kcat        s⁻¹              =    0.000343
32            G13U G29U C70A              kcat        s⁻¹              =    3.94e-05
33                 G13A A15C              kcat        s⁻¹              =    0.000242
34                 A12U G60U              kcat        s⁻¹              =    1.13e-05
35                 A15C A64G              kcat        s⁻¹              =     0.00792
36            C10U C67G U69G              kcat        s⁻¹              =    1.67e-05
37            A36C U65G C70U              kcat        s⁻¹              =    1.94e-05
38                 C16A A64G              kcat        s⁻¹              =     0.00134
39            A12G U31A G32U              kcat        s⁻¹              =    6.44e-05
40            A39C A48G U55C              kcat        s⁻¹              =    6.53e-05
41                 A14G G41C              kcat        s⁻¹              =     0.00141
42                 G37U U46G              kcat        s⁻¹              <       1e-05
43                 A15C C67A              kcat        s⁻¹              =    0.000713
44                 G13A A53G              kcat        s⁻¹              =     0.00138
45                 U31A U55A              kcat        s⁻¹              =      0.0251
46                 C58A C67U              kcat        s⁻¹              =    0.000215
